Origin of values: PubChem BioAssay (NCI)

# Test system: DU-145 prostate
# assay protocol: NCI tumour cell line growth inhibition, 48 h; in the data active means GI50 below about 0.43 µM; inactive means the rest
Valid outcomes are listed here; reply with one: class 1 for active, class 0 for inactive

Q: Record request — test call for Oc1c(CNCCNCc2cc(Cl)cc(Cc3ccccc3)c2O)cc(Cl)cc1Cc1ccccc1
Result: class 1

Q: Call for entry Nc1cc2nc3ccccc3oc-2cc1=O :
Result: class 0

Q: Dear all, I need the recorded test outcome for CC1(C)N=C(N)N=C(N)N1c1ccc(Cl)c(Cl)c1 , thank you.
Result: class 0

Q: Recorded call for CCN(CC)CCCNc1[nH]ncc2c(C)c3nc4ccccc4c3cc12 ?
Result: class 0

Q: Record request — test call for O=C(Nc1cccc(-n2cc(-c3ccncc3)c(-c3ccc(O)c(Cl)c3)n2)c1)c1ccc(Cl)c(Cl)c1
Result: class 0

* * *

# Tested on: ACHN renal
# assay protocol: NCI tumour cell line growth inhibition, 48 h
Where a SMILES comes first, the peptide text is derived from it. The star is where a group is joined. Cbz = O=C(OCc1ccccc1)*
measure name: TGI

Q: Read off the recorded TGI for CC12CCC(O)CC1=CCC1C2CCC2(C)C(c3cccnc3)=CCC12 (stereo unspecified)
Result: > 100 µM

Q: Give the measured TGI for O=S(=O)(/N=C(\NO)Nc1ccc(Cl)cc1)C1CC=C(c2ccon2)S1 (stereo unspecified)
Result: > 100 µM

Q: Please report the measured TGI for O=C(Nc1cccc(-n2cc(-c3ccncc3)c(-c3ccc(O)c(Cl)c3)n2)c1)c1ccc(Cl)c(Cl)c1
Result: > 100 µM

Q: State its TGI for this compound: CC(C)(O)CCc1ccc(O)c2c(=O)c3c(O)c4c(cc3oc12)O[C@H]1OC=C[C@@]41O
Result: < 0.01 µM

Q: Supply TGI value. Item: O=c1c2c3c(sc2nc2n1N=C(c1ccc([N+](=O)[O-])cc1)CS2)CCCC3
Result: > 100 µM

Q: Determine its reported TGI: Cc1ccc(C)c2c(N=Nc3ccccc3[N+](=O)[O-])c(O)[nH]c12
Result: > 100 µM

Q: Supply measured TGI of Cc1cccc(C(=O)O)c1CC1NCCC2c3ccccc3NC12 (stereo unspecified) in your reply.
Result: > 100 µM

Q: Kindly indicate its recorded TGI. Item: O=P1(Oc2ccccc2)NCc2ncccc2O1 (stereo unspecified)
Result: > 100 µM

Q: Specify reported TGI for the compound shown: Cc1cc(C)c(C(=O)/C=C/c2ccccc2)c(C)c1
Result: > 100 µM

Q: Note down TGI recorded for Cn1c(=O)c2nc(NCCO)cnc2n(C)c1=O
Result: > 100 µM

Q: Note down TGI recorded for Cc1cc(C)c2c(=O)cc(-c3ccc4ccccc4c3)[nH]c2n1
Result: > 100 µM

Q: Quote TGI reported for CC(=O)OC1[C@@H](OC(C)=O)CN(OCc2ccccc2)C[C@H]1OC(C)=O (stereo partly specified) please.
Result: > 100 µM

Q: Using the record for Oc1c2c(c(O)c3ccccc13)C1(N=N2)c2ccccc2Oc2ccccc21 , state its measured TGI.
Result: 16 µM

Q: Determine its reported TGI: Oc1ccccc1-c1nn2c(CCCCCCCCc3nnc4sc(-c5ccccc5O)nn34)nnc2s1
Result: > 100 µM

Q: Report TGI, nothing else, for this compound: NC(=O)C1N=NSC1NC(=O)c1ccc([N+](=O)[O-])cc1 (stereo unspecified)
Result: > 100 µM

Q: Look up TGI of CN(C)c1ccc(/C=N/NC(=O)c2cccc3ccccc23)c(Cl)c1 and report it.
Result: > 100 µM

Q: Provide only the value of recorded TGI for NC(C(=O)OC(=O)c1ccccc1)C(=O)OC(=O)c1ccccc1
Result: > 100 µM

Q: Please report the measured TGI for O=S(=O)(O)c1ccccc1N=Nc1ccc(N=Nc2c(O)ccc3ccccc23)c(S(=O)(=O)O)c1
Result: > 100 µM

Q: Answer with reported TGI of CC(C)(C)N=CN(C=C(c1ccccc1)c1ccccc1)C1CCCCC1
Result: > 100 µM

Q: Indicate the recorded TGI value for this compound: Cc1cc2c(cc1C)[n+](Cc1ccc3ccccc3n1)cn2Cc1ccc2ccccc2n1
Result: 10.6 µM

Q: // fetch TGI given entry COc1ccc(/C=C2\CN(C)CC3C2=NN(c2ccccc2)C3c2ccc(OC)cc2)cc1 (stereo unspecified)
Result: > 100 µM

Q: Please look at this compound and report its TGI: COC1=CC(=O)NCCN1
Result: > 100 µM

Q: For N=C(N)SCc1ccc(N=C=S)cc1 , write its TGI.
Result: 26.1 µM

Q: Tell me measured TGI for CCCC#CCOC(=O)c1cc([N+](=O)[O-])cc([N+](=O)[O-])c1 please.
Result: > 100 µM

Q: State its TGI for this compound: Cc1nn(-c2ccccc2)c2nc3ccc(Cl)cc3c(-c3ccccc3)c12
Result: > 100 µM

Q: Specify TGI for COc1ccc(-c2nc(-c3nc4ccc(C(F)(F)F)cc4[nH]3)c3ccccn23)cc1 and stop.
Result: > 100 µM

Q: Please report TGI for the following compound: COc1cc2cc3c4c(cc(OC)c(OC)c4c2cc1OC)CCN3C(=O)CCC(=O)O
Result: > 100 µM

Q: Supply reported TGI belonging to this compound: CN(C)Cc1cc(C(=O)/C=C/c2ccc(F)cc2)cc(CN(C)C)c1O
Result: 78.3 µM

Q: Read the entry C/C=C1\CCC2c3[nH]c4ccccc4c3CCN2C1 (stereo unspecified) and write its reported TGI.
Result: > 100 µM

Q: Quickly give me recorded TGI for COC(=O)C1=COc2c(n(C)c3ccccc23)-c2ccccc21
Result: > 100 µM

Q: Annotate the compound CCOC(=O)c1nc2cc(C(F)(F)F)ccc2[n+]([O-])c1C with its measured TGI.
Result: > 100 µM

Q: Return TGI (reported value) for this compound: C[N+](C)(C)C(C1=CCCC1=O)c1ccccc1 (stereo unspecified)
Result: 64.3 µM

Q: Given Cc1nc2ccccc2c(=O)n1/N=C/c1ccc(N(C)C)cc1 , respond with its TGI.
Result: > 100 µM

Q: Specify reported TGI for the compound shown: COc1cc(C(=O)OCCn2[nH]c(-c3ccc(Cl)cc3)nc2=S)cc(OC)c1OC
Result: > 100 µM

Q: Tell me its TGI given COc1ccccc1/C=C/c1nc2ccccc2o1 as the entry.
Result: > 10 µM

Q: For the compound COc1ccc2c(c1)CCN1C3=C(CCC3)C(=O)C[C@@H]21 , give its measured TGI value.
Result: > 100 µM

Q: For Cc1nnc([C@@]2(C)CC[C@H]3[C@@H](CCC4=CC(=O)CC[C@@]43C)[C@@H]2CC#N)o1 , write its TGI.
Result: > 100 µM

Q: State, in one line, measured TGI of CCOC(=O)CNC(=O)C(C)NC(=O)C(NC(=O)OCc1ccccc1)C(C)C (stereo not drawn) (Cbz-Val-Ala-Gly-OEt; configuration not given here)
Result: > 100 µM

Q: Give the reported TGI for this compound. CCN(CC)CCC(=O)/C=C/c1ccc(C)cc1
Result: 27.5 µM

Q: # return recorded TGI for input CC[C@H]1C=CCC[C@@]2(C[C@@H]3CC[C@@H]4[C@H](C(=O)OCCCCCCCCCCCCCCCC(=O)N(CCCNC(C)=O)C[C@H](CCNC(C)=O)OC(C)=O)[C@]5(CCC[C@@H](C)O5)NC(=[N+]34)N2)O1
Result: 1.37 µM

Q: Output measured TGI for this item: COc1cc(C2C3=C(COC3=O)Nc3cc4c(cc32)OCO4)cc2c1OCO2 (stereo unspecified)
Result: > 100 µM

* * *

# System: SF-268 CNS
# assay protocol: NCI tumour cell line growth inhibition, 48 h
Where a SMILES comes first, the peptide text is derived from it. The star is where a group is joined. Boc = CC(C)(C)OC(=O)*; OBn = c1ccc(CO*)cc1
Field: TGI. Provide a value for each of the molecules that follow.

Q: Please give the documented TGI of COC(=O)c1ccc(C)cc1CC1Cc2c(C)cccc2C1=O (stereo not drawn)
Result: 44.7 µM

Q: Specify measured TGI for O=C1CCCN1CCCN=c1cc2n(-c3ccc(Cl)cc3)c3ccccc3nc-2cc1Nc1ccc(Cl)cc1 .
Result: > 100 µM

Q: Determine its reported TGI: O=S(=O)(NCCO)c1cc[c]([Sb](=[O])([OH])[OH])cc1
Result: > 100 µM

Q: Give the measured TGI for O[C@H]1[C@H](O)[C@@H](Cn2nnc(-c3ccccc3)c2-c2ccccc2)OCO[C@@H]1Cn1nnc(-c2ccccc2)c1-c1ccccc1
Result: 25 µM

Q: Recall and state the measured TGI for Clc1cccc2c1OCC1C(c3ccccc3)=NN(c3ccccc3)C21 (stereo not drawn) .
Result: > 100 µM

Q: Item CCN1C(=O)N(CC)C2C1NN=c1s/c(=C\c3cccc([N+](=O)[O-])c3)c(=O)n12 (stereo not drawn) : provide TGI
Result: > 100 µM

Q: State its TGI: CC(C)(C)OC(=O)NCCCCCCCCCCn1c2c(c3ccccc3c1=O)C(=O)c1ccccc1-2
Result: > 100 µM

Q: Supply TGI value. Item: O=S(=O)(O)c1ccccc1N=Nc1ccc(N=Nc2c(O)ccc3ccccc23)c(S(=O)(=O)O)c1
Result: > 100 µM

Q: Item CCCCc1c2c(nc3c1CC/C(=C\c1ccc([N+](=O)[O-])cc1)C3=O)CCCC2 : provide TGI
Result: 3.93 µM

Q: Read the entry CC(C)CC(NC(=O)C(Cc1ccccc1)NC(=O)C(Cc1ccccc1)NC(=O)OC(C)(C)C)C(=O)OCc1ccccc1 (stereo not drawn) (Boc-Phe-Phe-Leu-OBn; configuration not given here) and write its reported TGI.
Result: > 100 µM

Q: Assign TGI to the following record: Oc1c(CNCCNCc2cc(Cl)cc(Cc3ccccc3)c2O)cc(Cl)cc1Cc1ccccc1
Result: > 100 µM

Q: Given the molecule COc1ccc(C#CC2=C(c3cc(OC)c(OC)c(OC)c3)C(=O)OC2)cc1 , write its reported TGI.
Result: > 50 µM

Q: Supply reported TGI belonging to this molecule: CCN(CC)CCC(=O)/C=C/c1ccc(C)cc1
Result: 30.4 µM

Q: Output measured TGI for this item: CCCCN1C(=O)CS/C1=N/Nc1nc2c([nH]1)c(=O)n(C)c(=O)n2C
Result: > 100 µM

Q: Indicate its recorded TGI; the molecule in question is Cc1cc2c(C(C)C)c(O)c(O)c(C=Nc3ccccc3)c2c(O)c1-c1c(C)cc2c(C(C)C)c(O)c(O)c(C=Nc3ccccc3)c2c1O
Result: > 100 µM

Q: Fill in TGI for record NC(=O)CNC(=O)[C@@H]1C[C@@H](OCCC(=O)O)CN1C(=O)OCc1ccccc1
Result: > 100 µM

Q: Tell me measured TGI for Oc1ccccc1C=Nc1ccccc1N=Cc1ccccc1O.[Cu+2] please.
Result: 17.5 µM

Q: Report measured TGI; entry is O=C(CCc1ccc(O)cc1)NCCCNC(=O)CCc1ccc(O)cc1
Result: > 100 µM
